systemTested: human L1 EN domain (1-239) (Homo sapiens (Human))
Sequence (O00370 1-239): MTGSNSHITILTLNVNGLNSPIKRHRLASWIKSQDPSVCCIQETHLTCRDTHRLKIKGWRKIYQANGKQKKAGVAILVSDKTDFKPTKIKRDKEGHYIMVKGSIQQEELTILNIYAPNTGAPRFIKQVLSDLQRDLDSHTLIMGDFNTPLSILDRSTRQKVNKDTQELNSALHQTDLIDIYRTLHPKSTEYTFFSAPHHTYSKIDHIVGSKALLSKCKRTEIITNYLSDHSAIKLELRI
assayOverview: plasmid nicking L1 EN activity biochemical assay
recordedMetric: Biochemical assay: maximum inhibition (% inhibition at)

>>> obsvalue("C/C(C[C@H](c1ccccc1)c1c(O)c2ccccc2oc1=O)=N\\Nc1ccc([N+](=O)[O-])cc1[N+](=O)[O-]")
100
>>> obsvalue("O=C(CCCCCCCCCCC(=O)Nc1cccc([N+](=O)[O-])c1)Nc1cccc([N+](=O)[O-])c1")
100
>>> obsvalue("C[C@@H](Nc1ccc([N+](=O)[O-])cc1[N+](=O)[O-])C(=O)O")
100
>>> obsvalue("O=[N+]([O-])c1ccc(Nc2ccc(Nc3ccccc3)c(S(=O)(=O)O)c2)c([N+](=O)[O-])c1")
100
>>> obsvalue("C/C(=N/Nc1ccc([N+](=O)[O-])cc1[N+](=O)[O-])c1ccc(-n2nncc2C(C)(C)C)cc1")
80
>>> obsvalue("O=C1c2ccc(Oc3ccc4c(c3)C(=O)N(Nc3ccc([N+](=O)[O-])cc3[N+](=O)[O-])C4=O)cc2C(=O)N1Nc1ccc([N+](=O)[O-])cc1[N+](=O)[O-]")
100
>>> obsvalue("O=C(O)[C@H](CCCCNc1ccc([N+](=O)[O-])cc1[N+](=O)[O-])Nc1ccc([N+](=O)[O-])cc1[N+](=O)[O-]")
100
